# Assay system: protein kinase C
# Procedure details: enzyme assay of protein kinase C activated with phosphatidylserine and diacylglycerol
# Type: biochemical
# Condition notes: protein kinase C activated with phosphatidylserine and iacylglycerol; according to EP-OS 0 255 126; read-out: concentration giving 50% inhibition of protein kinase C
Property: IC50 (µM)
Your answer is read as µM, so omit the unit and give the number.

IC50 for CCn1c2ccccc2c2c3c(c(-c4ccccc4Cl)cc21)C(=O)NC3=O ?
0.58
